Target: PTGER2 (EP2) (Homo sapiens (Human))
Test: hEP2 b-arrestin assay (PathHunter HEK 293 PTGER2 b-arrestin cells)
Format: cell-based
Settings: antagonistic activity on hEP2; mean where measured multiple times
Experimental endpoint: IC50 (nM)

Cc1ccc(F)c2c1cc(C)n2CCNc1cc(-c2ccc(-c3noc(=O)[nH]3)cc2)ncn1 : 30
Cc1cc(F)cc2c1cc(C)n2CCNc1cc(-c2ccc(C(=O)O)c(Cl)c2)ncn1 : 34
COc1ccc(F)c2c1cc(C)n2CCNc1cc(-c2ccc3cn[nH]c3c2)ncn1 : 22
COc1ccc(F)c2c1cc(C)n2CCNc1cc(-c2ccc(-n3ccc(C)n3)cc2)ncn1 : 39

====

Reported pIC50 is given for each of the following compounds.
Molecular target: PTGER2 (EP2) (Homo sapiens (Human), UniProt P43116)
Sequence (P43116 whole entry): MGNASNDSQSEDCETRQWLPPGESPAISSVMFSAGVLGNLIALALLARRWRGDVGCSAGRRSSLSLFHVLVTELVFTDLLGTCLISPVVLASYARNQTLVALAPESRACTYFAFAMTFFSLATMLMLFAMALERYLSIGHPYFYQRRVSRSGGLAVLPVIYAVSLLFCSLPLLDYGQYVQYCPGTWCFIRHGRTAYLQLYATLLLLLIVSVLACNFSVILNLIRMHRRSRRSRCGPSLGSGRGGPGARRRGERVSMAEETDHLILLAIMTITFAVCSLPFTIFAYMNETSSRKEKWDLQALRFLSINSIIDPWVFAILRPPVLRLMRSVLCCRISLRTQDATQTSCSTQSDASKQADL
Experiment: hEP2 b-arrestin assay (PathHunter HEK 293 PTGER2 b-arrestin cells)
Format: cell-based
Conditions: antagonistic activity on hEP2; mean where measured multiple times
pIC50: −log10 of the molar value.
Experimental endpoint: pIC50

CSc1cc(-c2cc(NCCn3c(C)cc4c(C)ccc(Cl)c43)ncn2)cc(Cl)c1C(=O)O : 7.27
COc1cc(-c2cc(NCCn3c(C)cc4c(C)cc(F)cc43)ncn2)ccc1C(=O)O : 7.68
COc1cc(F)cc2c1cc(C)n2CCNc1cc(-c2cc(Cl)c(C(=O)O)s2)ncn1 : 8.30
CCOc1cc(-c2cc(NCCn3c(C)cc4c(F)c(F)ccc43)ncn2)sc1C(=O)O : 8.70
Cc1ccc(F)c2c1cc(C)n2CCNc1cc(-c2ccc(C(=O)O)c(CC(C)C)c2)ncn1 : 7.34
COc1ccc(F)c2c1cc(C)n2CCNc1cc(-c2ccc3cc[nH]c3c2)ncn1 : 7.62
Cc1nc(-c2ccc(-c3cc(NCCn4c(C)cc5c(C)ccc(F)c54)ncn3)cc2)cs1 : 6.59
CCOc1cc(-c2cc(NCCn3c(C)cc4ccc(OC)cc43)ncn2)sc1C(=O)O : 9.00
Cc1ccc(F)c2c1cc(C)n2CCNc1cc(-c2ccc(NC(N)=O)cc2)ncn1 : 7.07
COc1cccc2c1cc(C)n2CCNc1cc(-c2ccc(-n3cccn3)cc2)ncn1 : 7.70
COc1ccc(F)c2c1cc(C)n2CCNc1cc(-c2ccc(S(N)(=O)=O)c(C)c2)ncn1 : 6.95
Cc1cc(-c2cc(NCCn3c(C)cc4c(Cl)ccc(F)c43)ncn2)ccc1C(=O)O : 7.36
CCc1cc(-c2cc(NCCn3c(C)cc4cc(C)cc(F)c43)ncn2)sc1C(=O)O : 7.49
CCCc1cc(-c2cc(NCCn3c(C)cc4c(F)ccc(Cl)c43)ncn2)cc(Cl)c1C(=O)O : 8.30
CCCc1cc(-c2cc(NCCn3c(C)cc4cccc(F)c43)ncn2)ccc1C(=O)O : 8.10
COc1ccc(F)c2c1cc(C)n2CCNc1cc(-c2cc(Cl)c(C(=O)O)s2)ncn1 : 8.40

====

Molecular target: PTGER2 (EP2) (Homo sapiens (Human))
Assay: hEP2 b-arrestin assay (PathHunter HEK 293 PTGER2 b-arrestin cells)
Format: cell-based
Settings: hEP2 b-arrestin assay (values without asterisk)
Experimental endpoint: IC50 (nM)

CCOc1cc(-c2cc(NCCn3c(C#N)cc4c(OC)ccc(F)c43)ncn2)sc1C(=O)NS(=O)(=O)C(C)C : 8
CCOc1cc(-c2cc(NCCn3c(C#N)cc4c(OC)ccc(F)c43)ncn2)ccc1NC(=O)C(=O)O : 5
COC(=O)Nc1ccc(-c2cc(NCCn3c(C)cc4c(OC)ccc(F)c43)ncn2)cc1 : 26
CCOc1nc(-c2cc(NCCn3c(C)cc4c(OC)ccc(F)c43)ncn2)sc1C(=O)O : 5
COc1cc(F)cc2c1cc(C)n2CCNc1cc(-c2cc(O)c(C(=O)O)s2)ncn1 : 12
CCOc1cc(-c2cc(NCCn3c(C)cc4c(OC)ccc(F)c43)ncn2)ccc1NC(C)C(=O)O (racemic) : 3
COc1ccc(F)c2c1cc(C)n2CCNc1cc(-c2cc(OC(C)C)c(CCC(=O)O)s2)ncn1 : 14
